target: Rap guanine nucleotide exchange factor 3 (Homo sapiens) (UniProt O95398); assay: Counterscreen qHTS for agonist of cAMP-regulated guanine nucleotide exchange factor 3 (EPAC1) (AID 1645889); settings: EPAC1 Rap1B-BODIPY-GDP exchange, fluorescence; series mostly up to 154 µM; note: % of control where 0% means no effect; nearly all actives have a fitted effect of over 40% in size
Results filed as inconclusive are left out. Activity calls are given as the source filed them. Calls come from the whole dose curve; as a rule, active = well fitted activation curve with a large enough effect; inconclusive = small, poorly fitted or top-dose-only effect, or another doubt; inactive = no such curve, though single readings can be large or run the other way.
recordedEndpoint: activation

Would you please look over these solved cases?
Reported activation of O=C(COC(=O)Cc1c(Cl)cccc1Cl)NCC1CCCO1 (stereo unspecified) : inactive

Given item Cc1cc(C)c(S(=O)(=O)Nc2ccc3c(c2)CCC3)c(C)c1 , the value recorded as its activation is inactive

The recorded activation for entry O=C(CC1Sc2ccccc2NC1=O)OCc1cc(=O)oc2cc(O)ccc12 (stereo unspecified) equals inactive

# activation (molecule: Oc1cccc(-c2nc3ncccn3c2Nc2cccc(C(F)(F)F)c2)c1 ) is inactive

activation for Cc1ccc(C)c(Nc2cc(C)nc(-c3ccccc3O)n2)c1 is 7.83% [at 30.8 µM] (inactive)

Continue with the next molecule.
Measured activation, COc1ccccc1C(CCN(Cc1ccccc1)C(C)=O)c1ccco1 (stereo unspecified) : 10.4% [at 30.8 µM] (inactive)
